- target_under_test: human MC1R (Homo sapiens)
- Construct: expressed in transfected cells; host or cells: HEK-293 cells stably expressing hMC1R and the GScAMP22F cAMP sensor
- Sequence (Q01726 whole entry): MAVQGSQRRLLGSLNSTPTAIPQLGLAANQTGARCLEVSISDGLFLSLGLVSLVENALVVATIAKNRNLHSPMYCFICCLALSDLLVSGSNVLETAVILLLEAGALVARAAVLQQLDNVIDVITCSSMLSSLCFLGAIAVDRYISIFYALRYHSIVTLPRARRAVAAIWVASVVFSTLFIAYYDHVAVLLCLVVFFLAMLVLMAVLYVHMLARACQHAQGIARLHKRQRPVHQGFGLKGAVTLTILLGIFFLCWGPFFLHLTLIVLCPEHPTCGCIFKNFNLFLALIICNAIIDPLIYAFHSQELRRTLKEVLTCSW
- assay: split-luciferase cAMP sensor assay, agonist mode, hMC1R
- Format: cell-based
- protocol_conditions: MC4R versus MC1R
Positions of bridges follow the written chain, without caps; N, C: chain ends. Non-standard residues stand in square brackets, D forms with d. Residues, ends and D or L forms follow the SMILES beside them. 3Pal = N[C@@H](Cc1cccnc1)C(=O)O; Cit = NC(=O)NCCC[C@H](N)C(=O)O; Nle = CCCC[C@H](N)C(=O)O; Aib = CC(C)(N)C(=O)O
The entries below are paired with their reported MC4R selectivity vs MC1R.
measurement_name: MC4R selectivity vs MC1R

compound	observed_measurement
CC(=O)N[C@@H](CCCNC(=N)N)C(=O)N[C@H]1CSSC[C@@H](C(N)=O)NC(=O)[C@H](Cc2c[nH]c3ccccc23)NC(=O)[C@H](CCCNC(=N)N)NC(=O)[C@@H](Cc2ccccc2)NC(=O)[C@H](CCCNC(N)=O)NC(=O)C(C)(C)NC1=O [CTX-1289, Arg-cyclo(Cys-Aib-Cit-D-Phe-Arg-Trp-Cys)]	130
CC(=O)N[C@H]1CSSC[C@@H](C(N)=O)NC(=O)[C@H](Cc2c[nH]c3ccccc23)NC(=O)[C@H](CCCNC(=N)N)NC(=O)[C@@H](Cc2ccccc2)NC(=O)[C@H](CCCNC(=N)N)NC(=O)[C@@H](C)NC1=O [CTX-1627, cyclo(Cys-D-Ala-Arg-D-Phe-Arg-Trp-Cys)] (Ac-C[dA]R[dF]RWC-NH2; disulfide 1-7 (inferred))	9.33
CCCC[C@H](NC(=O)[C@H](CCCNC(=N)N)NC(C)=O)C(=O)N[C@H]1CSSC[C@@H](C(N)=O)NC(=O)[C@H](Cc2ccccc2)NC(=O)[C@H](CCCNC(=N)N)NC(=O)[C@@H](Cc2ccccc2)NC(=O)[C@H](CCCNC(=N)N)NC1=O [CTX-1622, Arg-Nle-cyclo(Cys-Arg-D-Phe-Arg-Phe-Cys)] (Ac-R[Nle]CR[dF]RFC-NH2; disulfide 3-8 (inferred))	0.39
CC(=O)N[C@@H](CCCNC(=N)N)C(=O)N[C@H]1CSSC[C@@H](C(N)=O)NC(=O)[C@@H](Cc2c[nH]c3ccccc23)NC(=O)[C@H](CCCNC(N)=O)NC(=O)[C@@H](Cc2ccccc2)NC(=O)[C@H](CCCNC(=N)N)NC(=O)[C@@H](C)NC1=O [CTX-1281] (Ac-RC[dA]R[dF][Cit][dW]C-NH2; disulfide 2-8 (inferred))	0.44
COc1ccc(C[C@H]2NC(=O)[C@H](CCCNC(=N)N)NC(=O)C(C)(C)NC(=O)[C@@H](NC(=O)[C@H](CCCNC(=N)N)NC(C)=O)CSSC[C@@H](C(N)=O)NC(=O)[C@H](Cc3ccccc3)NC(=O)[C@H](CCCNC(=N)N)NC2=O)cc1 [CTX-1298] (Ac-RC[Aib]R[dY](Me)RFC-NH2; disulfide 2-8 (inferred))	0.12
CC(=O)N[C@@H](CCCNC(=N)N)C(=O)N[C@H]1CSSC[C@@H](C(N)=O)NC(=O)[C@@H](Cc2ccccc2)NC(=O)[C@H](CCCNC(=N)N)NC(=O)[C@@H](Cc2ccccc2)NC(=O)[C@H](CCCNC(=N)N)NC(=O)[C@@H](C)NC1=O [CTX-1257] (Ac-RC[dA]R[dF]R[dF]C-NH2; disulfide 2-8 (inferred))	0.02
CC(=O)N[C@@H](CCCNC(=N)N)C(=O)N[C@H]1CSSC[C@@H](C(N)=O)NC(=O)[C@@H](Cc2c[nH]c3ccccc23)NC(=O)[C@H](CCCNC(=N)N)NC(=O)[C@@H](Cc2ccccc2)NC(=O)[C@H](CCCNC(=N)N)NC(=O)[C@H](C)NC1=O [CTX-1268] (Ac-RCAR[dF]R[dW]C-NH2; disulfide 2-8)	6.59
CC(=O)N[C@@H](CCCNC(=N)N)C(=O)N[C@H]1CSSC[C@@H](C(N)=O)NC(=O)[C@H](Cc2ccccc2)NC(=O)[C@H](CCCNC(=N)N)NC(=O)[C@@H](Cc2ccccc2)NC(=O)[C@H](Cc2cccnc2)NC(=O)C(C)(C)NC1=O [CTX-1605] (Ac-RC[Aib][3Pal][dF]RFC-NH2; disulfide 2-8 (inferred))	0.14
CC(=O)N[C@@H](CCCNC(=N)N)C(=O)N[C@H]1CSSC[C@@H](C(N)=O)NC(=O)[C@H](Cc2c[nH]c3ccccc23)NC(=O)[C@H](CCCNC(=N)N)NC(=O)[C@@H](Cc2ccccc2)NC(=O)[C@H](CCCNC(N)=O)NC(=O)CNC1=O [CTX-1294, Arg-cyclo(Cys-Gly-Cit-D-Phe-Arg-Trp-Cys)] (Ac-RCG[Cit][dF]RWC-NH2; disulfide 2-8 (inferred))	111
CC(=O)N[C@H]1CSSC[C@@H](C(N)=O)NC(=O)[C@H](Cc2c[nH]c3ccccc23)NC(=O)[C@H](CCCNC(=N)N)NC(=O)[C@@H](Cc2ccccc2)NC(=O)[C@H](CCCNC(=N)N)NC(=O)C(C)(C)NC1=O [CTX-1632, cyclo(Cys-Aib-Arg-D-Phe-Arg-Trp-Cys)] (Ac-C[Aib]R[dF]RWC-NH2; disulfide 1-7)	3.18
CC[C@H]1NC(=O)[C@@H](NC(=O)[C@H](CCCNC(=N)N)NC(C)=O)CSSC[C@@H](C(N)=O)NC(=O)[C@H](Cc2c[nH]c3ccccc23)NC(=O)[C@H](CCCNC(=N)N)NC(=O)[C@@H](Cc2ccccc2)NC(=O)[C@H](Cc2c[nH]cn2)NC1=O [CTX-1295]	2.79
CC(=O)N[C@H]1CSSC[C@@H](C(N)=O)NC(=O)[C@H](Cc2ccccc2)NC(=O)[C@H](CCCNC(=N)N)NC(=O)[C@@H](Cc2ccccc2)NC(=O)[C@H](CCCNC(=N)N)NC(=O)CNC1=O [CTX-1638, cyclo(Cys-Gly-Arg-D-Phe-Arg-Phe-Cys)] (Ac-CGR[dF]RFC-NH2; disulfide 1-7)	1.04

Recorded values, source patent US20240391954A1.
